B1: IQUB (parent)
chain: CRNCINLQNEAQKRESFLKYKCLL

# Variants of: B1
# assay.procedure: protein stability index of a GFP-peptide fusion (GPS, HEK-293T) (PSI 1-6); higher = more stable;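 note: lentivirally expressed fusions sorted by FACS into six bins by GFP to DsRed ratio, PSI derived from sequencing read proportions per bin multiplied by bin number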
# assay.conditions: c terminus: a fixed tail appended
readout.name: protein stability index

Would you please look over these solved cases?
Return value of protein stability index for input E15Y , no commentary.
2.04

Return value of protein stability index for input K21C , no commentary.
1.77

Return value of protein stability index for input Y20N , no commentary.
2.96

Return value of protein stability index for input E10Q , no commentary.
2.23

Return value of protein stability index for input C1R , no commentary.
1.94

Return value of protein stability index for input E10S , no commentary.
1.9

Now consider a different variant.
Return value of protein stability index for input K21W , no commentary.
1.78
